property_measured: melting point

- smiles_record: "Cc1ccc(C)c(SCCCCCC(=O)O)c1"
  reported_measurement: "61 to 62 °C"
- smiles_record: "COc1ccccc1SCCCCCC(=O)O"
  reported_measurement: "81 to 82 °C"
- smiles_record: "O=C(O)CCCCCCCSc1ccccc1O"
  reported_measurement: "49 to 50 °C"
- smiles_record: "COc1ccccc1SCCCCCCCC(=O)O"
  reported_measurement: "62 to 63 °C"
- smiles_record: "COc1ccccc1SCCCCCCCCCC(=O)O"
  reported_measurement: "65 to 66 °C"

###

- compound: "O=C(O)CCCSc1ccc(Cl)cc1 [Compound 34, 4-(4-Chloro-phenylsulfanyl)-butyric acid]"
  melting point: "100 to 101 °C"
- compound: "Cc1ccc(C)c(SCC(=O)O)c1 [Compound 58]"
  melting point: "73 to 74 °C"
- compound: "O=C(O)CCCCCCCCCSc1ccccc1O [Compound 8]"
  melting point: "58 to 59 °C"
- compound: "Cc1ccc(C)c(SCCCC(=O)O)c1 [Compound 7]"
  melting point: "61 to 62 °C"
- compound: "COc1ccc(SCCCCCCCC(=O)O)cc1 [Compound 10]"
  melting point: "66 to 68 °C"
